target_or_system: A2AR (Homo sapiens)
Sequence (P29274 whole entry): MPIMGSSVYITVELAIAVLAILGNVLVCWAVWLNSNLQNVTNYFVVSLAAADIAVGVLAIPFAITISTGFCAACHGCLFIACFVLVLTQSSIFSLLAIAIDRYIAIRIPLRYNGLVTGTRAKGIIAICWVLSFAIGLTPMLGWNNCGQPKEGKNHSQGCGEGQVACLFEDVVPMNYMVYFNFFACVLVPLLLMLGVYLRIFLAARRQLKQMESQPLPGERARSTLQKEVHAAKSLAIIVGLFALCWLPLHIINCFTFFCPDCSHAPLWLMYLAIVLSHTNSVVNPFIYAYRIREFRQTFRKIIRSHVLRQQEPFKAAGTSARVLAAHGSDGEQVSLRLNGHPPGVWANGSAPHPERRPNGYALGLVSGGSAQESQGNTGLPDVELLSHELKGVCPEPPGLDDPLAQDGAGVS
measurement_description: A2AR potency (KB), Table 1
Assay type: biochemical
experimental_setup: read-out: Potency: A2AR KB (A2A)
Collected Kb values appear next to each entry.

* COc1c(F)ccc2c(-c3cn(Cc4ccn(C(C)(C)CO)n4)nn3)nc(N)nc12 | < 100 nM
* COc1cccc2c(-c3cn(Cc4ccn([C@H]5CCOC5)n4)nn3)nc(N)nc12 | < 100 nM
* COc1cccc2c(-c3cn(Cc4ccn(C5CC5)n4)nn3)nc(N)nc12 | < 100 nM
* CC(C)(O)Cn1ccc(Cn2cc(-c3cc(N)nc4c(F)cccc34)nn2)n1 | < 100 nM
* COc1cccc2c(-c3cn(Cc4ccn(CC(C)(C)O)n4)nn3)nc(N)nc12 | < 100 nM
* COCC(C)(C)n1ccc(Cn2cc(-c3nc(N)nc4c(OC)cccc34)nn2)n1 | < 100 nM

Suppose we examine the compound CC(C)(CO)n1ccc(Cn2cc(-c3nc(N)nc4c(F)cccc34)nn2)n1 ; what Kb value has been reported?
< 100 nM

Record: COc1cccc2c(-c3cn(Cc4ccn(CCO)n4)nn3)nc(N)nc12
< 100 nM

Record: CCOc1cccc2c(-c3cn(Cc4ccn(C5CC5)n4)nn3)nc(N)nc12
< 100 nM

Record: COc1cccc2c(-c3cn(Cc4ccn(CC(=O)N[C@@H]5CCOC5)n4)nn3)nc(N)nc12
< 100 nM

Record: COc1cccc2c(-c3cn(Cc4ccnn4CC4CCCO4)nn3)nc(N)nc12 (stereo not drawn)
< 100 nM

Record: CCOc1cccc2c(-c3cn(Cc4ccn(C(C)C)n4)nn3)nc(N)nc12
< 100 nM

Record: COc1cccc2c(-c3cn(Cc4ccnn4C)nn3)nc(N)nc12
< 100 nM

Record: COc1cccc2c(-c3cn(Cc4ccn(C(C)C)n4)nn3)nc(N)nc12
< 100 nM

Record: COc1cccc2c(-c3cn(Cc4ccn(CC5CCOCC5)n4)nn3)nc(N)nc12
< 100 nM

Record: Nc1nc(-c2cn(Cc3ccn(C4CC4)n3)nn2)c2ccc(F)c(F)c2n1
< 100 nM

Record: COc1cccc2c(-c3cn(Cc4ccn(C)n4)nn3)nc(N)nc12
< 100 nM

Record: COc1cccc2c(-c3cn(Cc4ccn(C(C)(C)CO)n4)nn3)nc(N)nc12
< 100 nM

Record: COc1cccc2c(-c3cn(Cc4cc(C(C)(C)O)[nH]n4)nn3)nc(N)nc12
< 100 nM

Record: CC(C)n1nccc1Cn1cc(-c2nc(N)nc3c(Cl)cccc23)nn1
< 100 nM

Record: COc1cccc2c(-c3cn(Cc4ccn(CC(=O)N5CC(O)C5)n4)nn3)nc(N)nc12
< 100 nM

Cited source for all entries: patent US11220492B2
